target-under-test: Lysophosphatidic acid receptor 2 (Homo sapiens)
Sequence (Q9HBW0 whole entry): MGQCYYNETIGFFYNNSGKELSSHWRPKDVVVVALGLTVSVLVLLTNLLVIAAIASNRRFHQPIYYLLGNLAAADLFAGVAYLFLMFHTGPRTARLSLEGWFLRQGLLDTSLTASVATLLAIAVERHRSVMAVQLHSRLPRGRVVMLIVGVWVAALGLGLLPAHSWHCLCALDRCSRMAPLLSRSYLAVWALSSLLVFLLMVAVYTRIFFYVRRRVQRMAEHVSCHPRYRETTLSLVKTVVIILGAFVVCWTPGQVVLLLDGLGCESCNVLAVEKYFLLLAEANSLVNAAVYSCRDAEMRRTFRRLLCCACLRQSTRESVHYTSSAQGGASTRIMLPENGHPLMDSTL
test-protocol: Activity at LPA2 receptor in RH7777 rat hepatoma cell line
For each entry below, report its pEC50 value.
Numbers only, as −log10 of the molar value.

Study these solved cases before continuing.
[ask] GET /values?readout=pEC50&item= C/C=C/C/C=C/C/C=C/CCCCCCCCC1OCC(COP(=O)(O)O)O1 (stereo not given)
[reply] 5.77

[ask] GET /values?readout=pEC50&item= "CCCCCCC/C=C/CCCCCCCC[C@@H]1OC[C@@H](COP(O)(O)=S)O1"
[reply] 5.81

[ask] GET /values?readout=pEC50&item= "CCCCCCC/C=C/CCCCCCCC[C@@H]1OC[C@H](COP(O)(O)=S)O1"
[reply] 5.96

[ask] GET /values?readout=pEC50&item= "CCCCCCC/C=C/CCCCCCCC[C@H]1OC[C@H](COP(O)(O)=S)O1"
[reply] 5.89

Give pEC50 for each of the items listed below.
1. CCCCCCC/C=C/CCCCCCCC[C@H]1OC[C@H](COP(=O)(O)O)O1
2. CCCCCCC/C=C/CCCCCCCCC1OCC(COP(O)(O)=S)O1 (stereo not given)
3. CCCCCCC/C=C/CCCCCCCC[C@@H]1OC[C@H](COP(=O)(O)O)O1
4. CCCCCCC/C=C/CCCCCCCC[C@H]1OC[C@@H](COP(O)(O)=S)O1

[reply]
1: 5.93; 2: 5.93; 3: 5.77; 4: 5.88

---

For each entry below, report its IC50 value.
target-under-test: Lysophosphatidic acid receptor 1 (Rattus norvegicus)
test-protocol: Activity at LPA1 receptor in RH7777 rat hepatoma cell line
Give bare numbers, in nM.

[ask] GET /values?readout=IC50&item= CCCCCCC/C=C/CCCCCCCCC1OCC(COP(=O)(O)O)O1 (stereo not drawn)
[reply] 915

[ask] GET /values?readout=IC50&item= CCCCCCCCc1ccc(CCCCCCC2OCC(COP(=O)(O)O)O2)cc1 (stereo not drawn)
[reply] 4660

More entries:
[ask] GET /values?readout=IC50&item= CCCCCCCCCCCCC1OCC(COP(=O)(O)O)O1 (stereo not drawn)
[reply] 1110

---

target-under-test: Autotaxin (Homo sapiens, UniProt Q13822)
test-protocol: Inhibition of lysophospholipase D autotaxin
outcome-measure: pIC50
Give bare numbers, as −log10 of the molar value.

Study these solved cases before continuing.
[ask] GET /values?readout=pIC50&item= CCCCCCCCc1ccc(CCCCCCC2OCC(COP(=O)(O)O)O2)cc1 (stereo not given)
[reply] 6.97

[ask] GET /values?readout=pIC50&item= CCCCCCCCc1ccc(CCCCCCC2OCC(COP(O)(O)=S)O2)cc1 (stereo not given)
[reply] 6.35

[ask] GET /values?readout=pIC50&item= "CCCCCCC/C=C/CCCCCCCC[C@H]1OC[C@H](COP(O)(O)=S)O1"
[reply] 6.60

[ask] GET /values?readout=pIC50&item= "CCCCCCC/C=C/CCCCCCCC[C@@H]1OC[C@@H](COP(=O)(O)O)O1"
[reply] 6.62

More entries:
[ask] GET /values?readout=pIC50&item= CCCCCCC/C=C/CCCCCCCCC1OCC(COP(O)(O)=S)O1 (stereo not given)
[reply] 6.38

---

For each entry below, report its residual activity value.
target-under-test: Autotaxin (Homo sapiens, UniProt Q13822)
test-protocol: Inhibition of lysophospholipase D autotaxin
Parameters: concentration or dose not given beside the values
protocol-conditions: values are per cent of control
Give bare numbers, in %.

Give residual activity for each of the items listed below.
1. CCCCCCC/C=C/CCCCCCCCC1OCC(COP(O)(O)=S)O1 (centres undefined)
2. CCCCCCC/C=C/CCCCCCCC[C@@H]1OC[C@@H](COP(=O)(O)O)O1
3. CCCCCCC/C=C/CCCCCCCC[C@H]1OC[C@H](COP(=O)(O)O)O1
4. CCCCCCC/C=C/CCCCCCCCC1OCC(COP(=O)(O)O)O1 (centres undefined)

[reply]
51
46
30
30

---

target-under-test: Lysophosphatidic acid receptor 1 (Rattus norvegicus, UniProt P61794)
Sequence (P61794 whole entry): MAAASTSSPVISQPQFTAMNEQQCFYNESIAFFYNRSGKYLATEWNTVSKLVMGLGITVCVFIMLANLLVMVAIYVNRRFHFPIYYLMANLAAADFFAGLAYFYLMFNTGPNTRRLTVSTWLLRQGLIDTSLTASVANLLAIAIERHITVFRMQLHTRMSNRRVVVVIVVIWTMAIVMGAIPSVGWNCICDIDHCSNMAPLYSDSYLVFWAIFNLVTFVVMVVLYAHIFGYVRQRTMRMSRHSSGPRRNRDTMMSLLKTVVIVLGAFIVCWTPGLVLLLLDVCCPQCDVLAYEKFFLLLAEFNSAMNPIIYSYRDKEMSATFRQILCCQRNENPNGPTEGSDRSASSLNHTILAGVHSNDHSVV
test-protocol: Activity at LPA1 receptor in RH7777 rat hepatoma cell line
For each entry below, report its EC50 value.
Give bare numbers, in nM.

[ask] GET /values?readout=EC50&item= C/C=C/C/C=C/C/C=C/CCCCCCCCC1OCC(COP(=O)(O)O)O1 (centres undefined)
[reply] 3600

[ask] GET /values?readout=EC50&item= "CCCCCCC/C=C/CCCCCCCC[C@@H]1OC[C@H](COP(O)(O)=S)O1"
[reply] 1410

Turning now to a further compound:
[ask] GET /values?readout=EC50&item= "CCCCCCC/C=C/CCCCCCCC[C@H]1OC[C@H](COP(O)(O)=S)O1"
[reply] 1580
